Experiment: chemical genetic growth profiling, strain panel (AID 1159580);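 further: tested at 20 µM; growth read once vehicle control cultures reached saturation at 30 °C; 1 = growth at the plate median or of vehicle wells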
Details: S. cerevisiae deletion strains, growth OD, locus YLR262C, strain YPT6
About 2,000 (36%) of roughly 5,500 compounds were called active. Another 18% or so got no clear call; they are omitted. No stated cut-off is given here; in the data, active means normalized growth mostly below about 0.91 (no sharp cut-off); inconclusive means no clear call, values can overlap the other calls; inactive means mostly above about 0.92. The list shows a part of the results.
Respond only with the outcome that fits, drawn from active, inactive

Solved cases below.
compound	category
COc1ccc(N=Cc2ccccc2O)cc1	active
COC(=O)CCC(=O)O[C@H]1CCC2(C)C(CCC3C2C(=O)[C@@H](O)C2(C)C3CC3OC4(CCC(C)CO4)[C@@H](C)C32)C1 (some centres undefined)	inactive

## Input Hi, sorry to bother you, what did the test record for COc1ccc(C=Nc2ccc(O)cc2)cc1 ?
## Output inactive

## Input Hi, sorry to bother you, what did the test record for C[C@@H]1O[C@@H](O[C@H]2C[C@@H](O)[C@]3(CO)C4C(CC[C@]3(O)C2)[C@@]2(O)CC[C@H](C3=CC(=O)OC3)[C@@]2(C)C[C@H]4O)[C@H](O)[C@H](O)[C@H]1O (some centres undefined) ?
## Output inactive

###

Test: chemical genetic growth profiling, strain panel (AID 1159580)
Conditions: S. cerevisiae deletion strains, growth OD, locus YLR027C, strain aat2, stronger effect = lower value
Hit rate of the full screen: of about 5,500 compounds, about 2,000 (36%) were called active. Inconclusive results (about 18%) are left out. The list shows a part of the results.
measured-endpoint: normalized growth
Give bare numbers.

molecule	normalized growth
C=C1C2CC[C@@]3(C)[C@H](c4ccoc4)OC(=O)C[C@]13O[C@H]1CC(=O)C(C)(C)C(CC(=O)OC)[C@@]21C (stereo not given in full)	0.996

Record normalized growth for all entries; do not skip any.
1. CC(=O)O[C@H]1C[C@@H](OC(C)=O)C(C)(C)C2CC(=O)[C@]3(C)C(CC[C@@]4(C)[C@H](c5ccoc5)OC(=O)[C@H]5O[C@]543)[C@]21C (stereo not given in full)
2. CCN(CC)CCOC(=O)C(c1ccccc1)c1ccccc1
3. NCC(CC(=O)O)c1ccc(Cl)cc1 (stereo not given)
4. Nc1ccn(C2O[C@H](CO)[C@@H](O)[C@H]2O)c(=O)n1 (stereo not given in full)

## Output
0.988
0.985
1.01
0.984

Record normalized growth for all entries; do not skip any.
1. C=C1[C@H]2CC[C@@]3(C)[C@H](c4ccoc4)OC(=O)C[C@]13O[C@H]1C[C@H](O)C(C)(C)[C@H](CC(=O)OC)[C@]12C
2. C=C1C2CC[C@@]3(C)[C@H](c4ccoc4)OC(=O)C[C@]13O[C@H]1CC(O)C(C)(C)C(CC(=O)OC)[C@@]21C (stereo not given in full)
3. CN(C)C(=O)Nc1ccc(Cl)c(Cl)c1
4. CN(C)CCOC(=O)COc1ccc(Cl)cc1

## Output
[1.01, 0.99, 0.969, 0.972]

###

Experiment: chemical genetic growth profiling, strain panel (AID 1159580)
Conditions: S. cerevisiae deletion strains, growth OD, locus YFR028C, strain CDC14, stronger effect = lower value
About 2,000 (36%) of roughly 5,500 compounds were called active. About 18% were inconclusive and are not listed. The list shows a part of the results.
Please provide measured normalized growth for the entries that follow.
Give bare numbers.

Record normalized growth for all entries; do not skip any.
1. Cc1nn(Cc2nnc(SCc3cccc(C(F)(F)F)c3)o2)c(C)c1Br
2. C/C(=N/Nc1ccccc1)c1cc(Cl)cc(Cl)c1O
3. O=C(Nc1cccc2ccccc12)c1ccccc1O
4. O=C1/C(=C/c2cccs2)COc2ccccc21
5. COc1ccc(CC2CCC(=NOC(=O)c3c(Cl)cccc3Cl)CC2)cc1 (stereo unspecified)
6. COc1ccc(CC2CCC(=NOC(=O)c3ccc(C(C)(C)C)cc3)CC2)cc1 (stereo unspecified)

## Output
1. 0.963
2. 0.93
3. 0.846
4. 0.901
5. 1
6. 0.975

###

Please provide measured normalized growth for the entries that follow.
Assay: chemical genetic growth profiling, strain panel (AID 1159580)
Settings: S. cerevisiae deletion strains, growth OD, locus YJR043C, strain POL32, stronger effect = lower value
The whole screen tested about 5,500 compounds, of which about 2,000 (36%) were called active. Roughly 18% stayed inconclusive and do not appear here. The list shows a part of the results.
Answers are plain numbers.

compound	normalized growth
O=c1cc(-c2ccccc2)oc2cc(O)c(O)c(O)c12	0.288
C[C@H](CCC(=O)O)[C@H]1CCC2C3C(CC[C@@]21C)[C@@]1(C)CC[C@@H](O)C[C@H]1C[C@@H]3O (stereo not given in full)	0.985
COc1ccc(C(=O)N2CCCC2=O)cc1	1

Record normalized growth for all entries; do not skip any.
1. NC(Cc1ccc(F)cc1)C(=O)O (stereo not given)
2. CC[C@H](CCC(C)[C@H]1CCC2C3CCC4C[C@@H](O)CC[C@]4(C)C3CC[C@@]21C)C(C)C (stereo not given in full)
3. CN(C)C(=O)Nc1ccc(Cl)c(Cl)c1

## Output
1. 1
2. 1.03
3. 0.88

Record normalized growth for all entries; do not skip any.
1. CCC(=O)Nc1ccc(Cl)c(Cl)c1
2. COc1cc2c(cc1-c1cc3cc4ccoc4cc3oc1=O)OCO2
3. COc1cc2c(cc1/C=C/C(=O)c1cc(OC)c(OC)cc1OC)OCO2
4. CN(C)N=Nc1nc[nH]c1C(N)=O
5. CC(CCC(=O)O)[C@H]1CCC2C3C(C[C@H](O)[C@@]21C)[C@@]1(C)CC[C@@H](O)C[C@H]1C[C@H]3O (stereo not given in full)
6. N[C@H](Cc1cc(I)c(Oc2ccc(O)c(I)c2)c(I)c1)C(=O)O
7. O=C(CSc1nnc(NC(=O)c2cccc([N+](=O)[O-])c2)s1)Nc1ccc2c(c1)OCO2

## Output
1: 0.931; 2: 1.01; 3: 1.02; 4: 1.03; 5: 0.994; 6: 0.996; 7: 0.977

###

Experiment: chemical genetic growth profiling, strain panel (AID 1159580);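 further: tested at 20 µM; growth read once vehicle control cultures reached saturation at 30 °C; 1 = growth at the plate median or of vehicle wells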
Settings: S. cerevisiae deletion strains, growth OD, locus YKR001C, strain vps1, stronger effect = lower value
In all, about 5,500 compounds went through this assay and about 2,000 (36%) were called active. Inconclusive results (about 18%) are left out. The list shows a part of the results.
Classify: TRUE when normalized growth is strictly less than 1; FALSE when normalized growth is not.

> print(dat)
                               compound  category
1  Clc1ccc2c(c1)C(N1CCNCC1)=Nc1ccccc1O2     FALSE

## Input Here's an entry: COC(=O)CCC(C)C1CCC2C3CC[C@@H]4C[C@H](O)CC[C@]4(C)C3C[C@H](O)[C@]12C (some centres undefined) . Is its normalized growth below 1?
## Output TRUE

## Input Here's an entry: C[C@H](CCC(=O)O)[C@H]1CCC2C3C(CC[C@@]21C)[C@@]1(C)CC[C@@H](O)C[C@H]1C[C@@H]3O (some centres undefined) . Is its normalized growth below 1?
## Output TRUE

###

Experiment: chemical genetic growth profiling, strain panel (AID 1159580);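 further: tested at 20 µM; growth read once vehicle control cultures reached saturation at 30 °C; 1 = growth at the plate median or of vehicle wells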
Conditions: S. cerevisiae deletion strains, growth OD, locus YAL021C, strain ccr4
Among all 5,500 compounds or so, about 2,000 (36%) were called active. Not shown: some 18% with an inconclusive outcome. Cut-off read from the data, not from the text of the source: active = normalized growth mostly below about 0.91 (no sharp cut-off); inconclusive = no clear call, values can overlap the other calls; inactive = mostly above about 0.92. This is one part of the list.
Respond only with the outcome that fits, drawn from active, inactive

compound	category
C[C@@H]1O[C@@H](O[C@H]2C[C@@H](O)[C@]3(CO)C4C(CC[C@]3(O)C2)[C@@]2(O)CC[C@H](C3=CC(=O)OC3)[C@@]2(C)C[C@H]4O)[C@H](O)[C@H](O)[C@H]1O (some centres undefined)	inactive

Now look at this one.
## Input Hi, sorry to bother you, what did the test record for COc1c2ccccc2nc2occc12 ?
## Output inactive

###

Experiment: chemical genetic growth profiling, strain panel (AID 1159580);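 further: tested at 20 µM; growth read once vehicle control cultures reached saturation at 30 °C; 1 = growth at the plate median or of vehicle wells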
Conditions: S. cerevisiae deletion strains, growth OD, locus YOR119C, strain RIO1, stronger effect = lower value
The whole screen tested about 5,500 compounds, of which about 2,000 (36%) were called active. Roughly 18% stayed inconclusive and do not appear here. This is one part of the list.
Classify: Y when normalized growth is strictly less than 0.2; N when normalized growth is not.

Solved cases below.
> print(dat)
                                   compound  category
1             O=C(Nc1cccc2ccccc12)c1ccccc1O         N
2  CC1C/C(=N/Nc2ccc(Br)cc2)c2cc(Cl)ccc2S1 (stereo unspecified)         Y
3  O=S(=O)(Nc1ccc(Oc2ccc(Cl)cc2)cc1)c1ccccc1         N
4  Cc1ccc(S(=O)(=O)Nc2ccc(Oc3ccc(F)cc3)cc2)cc1         N
5  O=S(=O)(Nc1ccc(Oc2ccc(OC(F)(F)F)cc2)cc1)c1cccc(Cl)c1         N

## Input Here's an entry: COc1ccc(CC2CCC(=NOC(=O)c3c(Cl)cccc3Cl)CC2)cc1 (stereo unspecified) . Is its normalized growth below 0.2?
## Output N
